Assayed Target: native human MET on living human cells (human, UniProt P08581 25-1390)
Sequence (P08581 25-1390): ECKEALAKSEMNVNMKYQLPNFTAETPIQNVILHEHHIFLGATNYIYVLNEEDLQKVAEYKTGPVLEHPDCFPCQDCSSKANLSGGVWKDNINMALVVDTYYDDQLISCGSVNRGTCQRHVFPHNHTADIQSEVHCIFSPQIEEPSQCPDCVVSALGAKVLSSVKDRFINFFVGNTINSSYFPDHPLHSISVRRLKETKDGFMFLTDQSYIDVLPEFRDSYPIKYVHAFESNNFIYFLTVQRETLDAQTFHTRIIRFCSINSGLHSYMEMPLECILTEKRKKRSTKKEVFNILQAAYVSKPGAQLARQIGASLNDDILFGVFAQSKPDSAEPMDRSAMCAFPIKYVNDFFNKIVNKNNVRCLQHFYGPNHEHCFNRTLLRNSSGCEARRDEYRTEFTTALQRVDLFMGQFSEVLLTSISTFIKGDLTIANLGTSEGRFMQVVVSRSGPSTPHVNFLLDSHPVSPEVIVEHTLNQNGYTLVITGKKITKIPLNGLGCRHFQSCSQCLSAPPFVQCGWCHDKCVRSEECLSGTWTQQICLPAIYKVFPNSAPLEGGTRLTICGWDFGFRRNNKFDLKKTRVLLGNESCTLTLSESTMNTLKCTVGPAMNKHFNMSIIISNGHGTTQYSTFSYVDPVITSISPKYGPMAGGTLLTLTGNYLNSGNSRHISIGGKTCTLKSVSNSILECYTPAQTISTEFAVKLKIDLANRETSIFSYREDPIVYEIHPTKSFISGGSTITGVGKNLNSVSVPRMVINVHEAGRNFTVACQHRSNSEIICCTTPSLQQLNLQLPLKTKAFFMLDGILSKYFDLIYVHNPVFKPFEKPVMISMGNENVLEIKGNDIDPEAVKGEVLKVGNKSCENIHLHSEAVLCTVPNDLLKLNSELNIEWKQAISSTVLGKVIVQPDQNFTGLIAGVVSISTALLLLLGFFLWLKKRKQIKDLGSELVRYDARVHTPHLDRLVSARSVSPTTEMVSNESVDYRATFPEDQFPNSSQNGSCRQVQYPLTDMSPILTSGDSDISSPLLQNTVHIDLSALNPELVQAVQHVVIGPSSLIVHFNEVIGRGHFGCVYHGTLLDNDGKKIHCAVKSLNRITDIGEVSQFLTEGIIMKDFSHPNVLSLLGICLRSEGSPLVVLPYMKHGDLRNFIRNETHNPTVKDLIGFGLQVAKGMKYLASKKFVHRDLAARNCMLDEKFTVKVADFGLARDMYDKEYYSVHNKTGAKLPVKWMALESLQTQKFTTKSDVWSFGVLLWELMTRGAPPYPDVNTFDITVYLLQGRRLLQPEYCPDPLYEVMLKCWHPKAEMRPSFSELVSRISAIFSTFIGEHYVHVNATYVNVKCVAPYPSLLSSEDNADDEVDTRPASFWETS
Protocol Notes: cell-based or functional assay
Mark label 1 only for protection from staurosporine, viability EMAX, MCF10A values smaller than 60%; exact matches and larger values are label 0.

Consider the following illustrative entries.
{"Binder": "chimeric llama-human IgG1 mAb 71G12 (antibody, V domains shown) VH: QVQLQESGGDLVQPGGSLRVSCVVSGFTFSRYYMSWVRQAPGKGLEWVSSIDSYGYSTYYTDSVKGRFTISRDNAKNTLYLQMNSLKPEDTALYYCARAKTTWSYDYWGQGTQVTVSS VL: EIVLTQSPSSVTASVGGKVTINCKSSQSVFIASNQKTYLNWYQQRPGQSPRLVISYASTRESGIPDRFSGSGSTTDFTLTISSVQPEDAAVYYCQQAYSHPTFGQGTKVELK", "Classification": "label 1"}
{"Binder": "chimeric llama-human IgG1 mAb 71D6 (antibody, V domains shown) VH: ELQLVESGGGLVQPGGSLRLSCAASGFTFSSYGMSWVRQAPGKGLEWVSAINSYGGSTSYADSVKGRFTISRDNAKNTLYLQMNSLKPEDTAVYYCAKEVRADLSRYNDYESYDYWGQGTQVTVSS VL: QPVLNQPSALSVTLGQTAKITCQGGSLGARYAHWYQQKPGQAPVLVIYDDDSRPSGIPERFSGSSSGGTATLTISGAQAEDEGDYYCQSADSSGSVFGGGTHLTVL", "Classification": "label 0"}
{"Binder": "chimeric llama-human IgG1 mAb 71G2 (antibody, V domains shown) VH: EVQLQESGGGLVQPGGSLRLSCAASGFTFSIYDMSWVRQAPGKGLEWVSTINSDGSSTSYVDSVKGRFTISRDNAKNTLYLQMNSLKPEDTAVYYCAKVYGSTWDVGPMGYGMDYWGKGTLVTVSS VL: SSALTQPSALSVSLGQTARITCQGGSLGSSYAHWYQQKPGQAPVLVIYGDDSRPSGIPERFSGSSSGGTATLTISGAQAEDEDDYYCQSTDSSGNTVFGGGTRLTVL", "Classification": "label 0"}
{"Binder": "chimeric llama-human IgG1 mAb 71C3 (antibody, V domains shown) VH: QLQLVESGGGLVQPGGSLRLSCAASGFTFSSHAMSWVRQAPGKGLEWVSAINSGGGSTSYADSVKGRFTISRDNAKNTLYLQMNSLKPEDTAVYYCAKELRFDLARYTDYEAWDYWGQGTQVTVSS VL: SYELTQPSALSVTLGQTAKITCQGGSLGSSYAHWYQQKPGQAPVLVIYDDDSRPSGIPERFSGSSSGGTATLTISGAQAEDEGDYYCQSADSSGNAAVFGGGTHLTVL", "Classification": "label 1"}

Field: below-cutoff. Rule: recorded protection from staurosporine, viability EMAX, MCF10A strictly less than 60%. Subject: chimeric llama-human IgG1 mAb 71D4 (antibody, V domains shown) VH: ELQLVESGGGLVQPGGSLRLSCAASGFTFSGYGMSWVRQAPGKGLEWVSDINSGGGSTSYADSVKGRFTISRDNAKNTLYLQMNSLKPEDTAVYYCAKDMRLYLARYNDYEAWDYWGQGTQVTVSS VL: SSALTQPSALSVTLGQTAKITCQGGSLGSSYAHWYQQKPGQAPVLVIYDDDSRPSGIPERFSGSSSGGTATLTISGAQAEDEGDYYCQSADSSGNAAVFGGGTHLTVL
label 1
